system: MS2 coat protein; experiment: apparent KD of MS2 coat protein; designed switch direction (-1 OFF switch, 1 ON switch): -1; higher = weaker reporter binding; conditions: input ligand: none
// values below are reported apparent KD of MS2 coat protein
# output: bare number, implied unit µM

The examples below pair each entry with its known result.
>  <biopolymer_sequence>
AUAAUGUAAGGAUAUCAGUCGUUAAUAAUUAAUUAAUCGACUGAGAAGGUACAUGAGGAUCACCCAUGUGAUCA [E4/8-B2] (Eterna round: R97, puzzle: Exclusion 4)

>  <subject_of_test>
MS2 coat protein

>  <output_unit>
µM

>  <apparent KD of MS2 coat protein>
1

$$$$
>  <biopolymer_sequence>
CAGCUGAAAGUGAGGAUAUCGACUGCCUCGGCAGUCGAGAAGGCACAUGAGGAUCACCCAUGUCUCAACAGCUG [BmEx4/1-A5] (Eterna round: R97, puzzle: Brourd's mod of Exclusion 4)

>  <subject_of_test>
MS2 coat protein

>  <output_unit>
µM

>  <apparent KD of MS2 coat protein>
0.023

$$$$
>  <biopolymer_sequence>
ACAUGAGGAUCACCCAUGUCAACGAAAAGGCUCAUGUAGAGUGAGGAUAUGUGAGACGAACGAGAACAGAAGGCACAAGACAGG [Deportation 3 - Jieux - Exclusion NG 3] (Eterna round: R96, puzzle: Exclusion NG 3)

>  <subject_of_test>
MS2 coat protein

>  <output_unit>
µM

>  <apparent KD of MS2 coat protein>
0.0384

$$$$
>  <biopolymer_sequence>
UUUGUUUAUGUAGGAUAUGCCUGGCGUGCCUUUGCAGAAGGACAUGAGGAUCACCCAUGUAACAUGAGGCUCACCCAUGUCGCC [salish99_ExNG1_r04_113] (Eterna round: R96, puzzle: Exclusion NG 1)

>  <subject_of_test>
MS2 coat protein

>  <output_unit>
µM

>  <apparent KD of MS2 coat protein>
0.165

$$$$

Note: attention shifts to another entry.
Incoming: // query apparent KD of MS2 coat protein value for entry CAGUACUGAGGAUAUACAUGAGGAUCACCCAUGUGAGAGUUACUAGUGAGGUCGAUUAGUAGAAGGCAGUACUG [Mat X3R4 m29] (Eterna round: R97, puzzle: Exclusion 3)
Outgoing: 0.0396
